tested on: control sera (pooled serum of ten healthy LUMC hospital workers; commercial negative donor pooled serum from the Dutch bloodbank); format: binding, human; parameters: unit not given here
experimentalEndpoint: Binding of Control serum LUMC to looped peptides of the protein M of SARS-CoV Urbani

[
  {
    "sequenceText": "KDLPKEITVATSRTL",
    "measuredResult": 0.8
  },
  {
    "sequenceText": "MAGHPLGRCDIKDLP",
    "measuredResult": 0.5
  },
  {
    "sequenceText": "IVTRPLMESELVIGA",
    "measuredResult": 1.0
  },
  {
    "sequenceText": "FVLAAVYRINWVTGG",
    "measuredResult": 0.8
  },
  {
    "sequenceText": "LVFLWLLWPVTLACF",
    "measuredResult": 0.7
  },
  {
    "sequenceText": "ESELVIGAVIIRGHL",
    "measuredResult": 0.5
  },
  {
    "sequenceText": "EITVATSRTLSYYKL",
    "measuredResult": 0.6
  },
  {
    "sequenceText": "ASFRLFARTRSMWSF",
    "measuredResult": 0.7
  },
  {
    "sequenceText": "MESELVIGAVIIRGH",
    "measuredResult": 0.6
  },
  {
    "sequenceText": "RGTIVTRPLMESELV",
    "measuredResult": 0.8
  },
  {
    "sequenceText": "LMWLSYFVASFRLFA",
    "measuredResult": 0.6
  },
  {
    "sequenceText": "IAMACIVGLMWLSYF",
    "measuredResult": 0.7
  },
  {
    "sequenceText": "IIKLVFLWLLWPVTL",
    "measuredResult": 0.6
  },
  {
    "sequenceText": "LGASQRVGTDSGFAA",
    "measuredResult": 0.8
  },
  {
    "sequenceText": "NTDHAGSNDNIALLV",
    "measuredResult": 0.9
  },
  {
    "sequenceText": "LLWPVTLACFVLAAV",
    "measuredResult": 0.7
  },
  {
    "sequenceText": "ASQRVGTDSGFAAYN",
    "measuredResult": 0.8
  },
  {
    "sequenceText": "VLAAVYRINWVTGGI",
    "measuredResult": 0.8
  }
]

---

tested on: rabbit serum obtained by immunizing a rabbit with the SARS-CoV strain Frankfurt 1; format: binding; set-up: unit not given here
Mark t for Binding of a rabbit serum to looped peptides under 0.4, f if at or over.

[
  {
    "sequenceText": "KLVVILRIGTQVLKT",
    "category": "f"
  },
  {
    "sequenceText": "TQITTDTGIENATFF",
    "category": "f"
  },
  {
    "sequenceText": "QFICNLLLLFVTIYS",
    "category": "f"
  },
  {
    "sequenceText": "ITAQPVKIDNASPAS",
    "category": "t"
  },
  {
    "sequenceText": "TVHATATIPLQASLP",
    "category": "f"
  },
  {
    "sequenceText": "KIDNASPASTVHATA",
    "category": "t"
  },
  {
    "sequenceText": "TDTGIENATFFIFNK",
    "category": "f"
  },
  {
    "sequenceText": "FIFNKLVKDPPNVQI",
    "category": "f"
  },
  {
    "sequenceText": "DYVVVHGYFTEVYYQ",
    "category": "f"
  },
  {
    "sequenceText": "NPLLYDANYFVCWHT",
    "category": "f"
  },
  {
    "sequenceText": "PKLKEDYQIGGYSED",
    "category": "f"
  },
  {
    "sequenceText": "NPAMDPIYDEPTTTT",
    "category": "t"
  },
  {
    "sequenceText": "IHTIDGSSGVANPAM",
    "category": "f"
  }
]

---

Reported values of Binding of serum 6 to looped/cyclic peptides of protein X4 of SARS-CoV Urbani for individual entries
system: antibodies in sera from SARS patients (sera 1a, 1b, 2, 6, 37, 62, London, SARS-yellow, SARS-green); format: binding, human
experimentalEndpoint: Binding of serum 6 to looped/cyclic peptides of protein X4 of SARS-CoV Urbani

[
  {
    "sequenceText": "KFALTCTSTHFAFAC",
    "measuredResult": 0.7
  },
  {
    "sequenceText": "LIVFTSCELYHYQEC",
    "measuredResult": 0.5
  },
  {
    "sequenceText": "FALTCTSTHFAFACA",
    "measuredResult": 0.5
  },
  {
    "sequenceText": "IVFTSCELYHYQECV",
    "measuredResult": 0.6
  },
  {
    "sequenceText": "TYQLRARSVSPKLFI",
    "measuredResult": 1.3
  },
  {
    "sequenceText": "EVQQELYSPLFLIVA",
    "measuredResult": 0.5
  },
  {
    "sequenceText": "CADGTRHTYQLRARS",
    "measuredResult": 0.6
  },
  {
    "sequenceText": "PKLFIRQEEVQQELY",
    "measuredResult": 0.5
  },
  {
    "sequenceText": "FACADGTRHTYQLRA",
    "measuredResult": 0.3
  }
]

---

tested on: recombinant human anti-SARS-CoV antibody 03-018; assay type: binding; set-up: unit not given here
experimentalEndpoint: Binding of antibody 03-018 to looped/cyclic peptides of the N protein of SARS-CoV Urbani

[
  {
    "sequenceText": "YGANKEGIVWVATEG",
    "subjectOfTest": "recombinant human anti-SARS-CoV antibody 03-018",
    "measuredResult": 0.2
  },
  {
    "sequenceText": "DDKDPQFKDNVILLN",
    "subjectOfTest": "recombinant human anti-SARS-CoV antibody 03-018",
    "measuredResult": 0.3
  },
  {
    "sequenceText": "DEAQPLPQRQKKQPT",
    "subjectOfTest": "recombinant human anti-SARS-CoV antibody 03-018",
    "measuredResult": 0.2
  },
  {
    "sequenceText": "GRRGPEQTQGNFGDQ",
    "subjectOfTest": "recombinant human anti-SARS-CoV antibody 03-018",
    "measuredResult": 0.2
  },
  {
    "sequenceText": "INTNSGPDDQIGYYR",
    "subjectOfTest": "recombinant human anti-SARS-CoV antibody 03-018",
    "measuredResult": 0.2
  },
  {
    "sequenceText": "LPYGANKEGIVWVAT",
    "subjectOfTest": "recombinant human anti-SARS-CoV antibody 03-018",
    "measuredResult": 0.2
  },
  {
    "sequenceText": "QIAQFAPSASAFFGM",
    "subjectOfTest": "recombinant human anti-SARS-CoV antibody 03-018",
    "measuredResult": 0.3
  },
  {
    "sequenceText": "GSRGGSQASSRSSSR",
    "subjectOfTest": "recombinant human anti-SARS-CoV antibody 03-018",
    "measuredResult": 0.2
  },
  {
    "sequenceText": "TTLPKGFYAEGSRGG",
    "subjectOfTest": "recombinant human anti-SARS-CoV antibody 03-018",
    "measuredResult": 0.2
  },
  {
    "sequenceText": "IAQFAPSASAFFGMS",
    "subjectOfTest": "recombinant human anti-SARS-CoV antibody 03-018",
    "measuredResult": 0.3
  },
  {
    "sequenceText": "FAPSASAFFGMSRIG",
    "subjectOfTest": "recombinant human anti-SARS-CoV antibody 03-018",
    "measuredResult": 0.2
  },
  {
    "sequenceText": "YAEGSRGGSQASSRS",
    "subjectOfTest": "recombinant human anti-SARS-CoV antibody 03-018",
    "measuredResult": 0.2
  },
  {
    "sequenceText": "PQGLPNNTASWFTAL",
    "subjectOfTest": "recombinant human anti-SARS-CoV antibody 03-018",
    "measuredResult": 0.3
  },
  {
    "sequenceText": "TKKSAAEASKKPRQK",
    "subjectOfTest": "recombinant human anti-SARS-CoV antibody 03-018",
    "measuredResult": 0.2
  },
  {
    "sequenceText": "SGGGETALALLLLDR",
    "subjectOfTest": "recombinant human anti-SARS-CoV antibody 03-018",
    "measuredResult": 0.2
  },
  {
    "sequenceText": "TALALLLLDRLNQLE",
    "subjectOfTest": "recombinant human anti-SARS-CoV antibody 03-018",
    "measuredResult": 0.2
  },
  {
    "sequenceText": "GPDDQIGYYRRATRR",
    "subjectOfTest": "recombinant human anti-SARS-CoV antibody 03-018",
    "measuredResult": 0.3
  },
  {
    "sequenceText": "SRSRGNSRNSTPGSS",
    "subjectOfTest": "recombinant human anti-SARS-CoV antibody 03-018",
    "measuredResult": 0.2
  },
  {
    "sequenceText": "ATRRVRGGDGKMKEL",
    "subjectOfTest": "recombinant human anti-SARS-CoV antibody 03-018",
    "measuredResult": 0.2
  },
  {
    "sequenceText": "WPQIAQFAPSASAFF",
    "subjectOfTest": "recombinant human anti-SARS-CoV antibody 03-018",
    "measuredResult": 0.3
  },
  {
    "sequenceText": "RMASGGGETALALLL",
    "subjectOfTest": "recombinant human anti-SARS-CoV antibody 03-018",
    "measuredResult": 0.3
  },
  {
    "sequenceText": "SWFTALTQHGKEELR",
    "subjectOfTest": "recombinant human anti-SARS-CoV antibody 03-018",
    "measuredResult": 0.2
  },
  {
    "sequenceText": "ADMDDFSRQLQNSMS",
    "subjectOfTest": "recombinant human anti-SARS-CoV antibody 03-018",
    "measuredResult": 0.1
  },
  {
    "sequenceText": "ATVLQLPQGTTLPKG",
    "subjectOfTest": "recombinant human anti-SARS-CoV antibody 03-018",
    "measuredResult": 0.2
  },
  {
    "sequenceText": "PQIAQFAPSASAFFG",
    "subjectOfTest": "recombinant human anti-SARS-CoV antibody 03-018",
    "measuredResult": 0.2
  },
  {
    "sequenceText": "YHGAIKLDDKDPQFK",
    "subjectOfTest": "recombinant human anti-SARS-CoV antibody 03-018",
    "measuredResult": 0.2
  },
  {
    "sequenceText": "AAEASKKPRQKRTAT",
    "subjectOfTest": "recombinant human anti-SARS-CoV antibody 03-018",
    "measuredResult": 0.2
  },
  {
    "sequenceText": "MASGGGETALALLLL",
    "subjectOfTest": "recombinant human anti-SARS-CoV antibody 03-018",
    "measuredResult": 0.3
  },
  {
    "sequenceText": "PEQTQGNFGDQDLIR",
    "subjectOfTest": "recombinant human anti-SARS-CoV antibody 03-018",
    "measuredResult": 0.2
  },
  {
    "sequenceText": "QRQKKQPTVTLLPAA",
    "subjectOfTest": "recombinant human anti-SARS-CoV antibody 03-018",
    "measuredResult": 0.3
  },
  {
    "sequenceText": "PKDHIGTRNPNNNAA",
    "subjectOfTest": "recombinant human anti-SARS-CoV antibody 03-018",
    "measuredResult": 0.2
  },
  {
    "sequenceText": "EGSRGGSQASSRSSS",
    "subjectOfTest": "recombinant human anti-SARS-CoV antibody 03-018",
    "measuredResult": 0.2
  },
  {
    "sequenceText": "NNTASWFTALTQHGK",
    "subjectOfTest": "recombinant human anti-SARS-CoV antibody 03-018",
    "measuredResult": 0.2
  },
  {
    "sequenceText": "ILLNKHIDAYKTFPP",
    "subjectOfTest": "recombinant human anti-SARS-CoV antibody 03-018",
    "measuredResult": 0.2
  },
  {
    "sequenceText": "PARMASGGGETALAL",
    "subjectOfTest": "recombinant human anti-SARS-CoV antibody 03-018",
    "measuredResult": 0.3
  },
  {
    "sequenceText": "PGSSRGNSPARMASG",
    "subjectOfTest": "recombinant human anti-SARS-CoV antibody 03-018",
    "measuredResult": 0.3
  },
  {
    "sequenceText": "FGMSRIGMEVTPSGT",
    "subjectOfTest": "recombinant human anti-SARS-CoV antibody 03-018",
    "measuredResult": 0.2
  },
  {
    "sequenceText": "TNSGPDDQIGYYRRA",
    "subjectOfTest": "recombinant human anti-SARS-CoV antibody 03-018",
    "measuredResult": 0.2
  }
]
